# METHOD: Cell Titer-fluor cell activity assay in HCV-1b replicon cells (CC50)
# Format: cell-based

COMPOUND: COC(=O)N[C@H](C(=O)N1CCC[C@H]1c1ncc(-c2ccc(-c3ccc(-c4cnc(C5C6CCC(C6)[C@@H]5C(=O)NCc5ccc(C(F)(F)F)nc5)[nH]4)cc3)cc2)[nH]1)[C@@H](C)OC (some centres unmarked)
CC50 at 3 days: > 1 nM
//
COMPOUND: COC(=O)N[C@H](C(=O)N1CCC[C@H]1c1ncc(-c2ccc(-c3ccc(-c4cnc([C@H]5C6CCC(C6)[C@@H]5C(=O)NCc5ccc(N)cc5)[nH]4)cc3)cc2)[nH]1)C(C)C (some centres unmarked)
CC50 at 3 days: > 1 nM
//
COMPOUND: COC(=O)N[C@H](C(=O)N1C[C@@H](OC)C[C@H]1c1ncc(-c2ccc(-c3ccc(-c4cnc([C@@H]5C6CCC(C6)[C@H]5C(=O)NCc5cccnc5)[nH]4)cc3)cc2)[nH]1)[C@@H](C)OC (some centres unmarked)
CC50 at 3 days: > 1 nM
//
COMPOUND: COC(=O)N[C@H](C(=O)N1CCC[C@H]1c1ncc(-c2ccc(-c3ccc(-c4cnc([C@H]5C6CCC(C6)[C@@H]5C(=O)NCc5cccnc5C(F)(F)F)[nH]4)cc3)cc2)[nH]1)C(C)C (some centres unmarked)
CC50 at 3 days: > 1 nM
//
COMPOUND: COC(=O)N[C@H](C(=O)N1CCC[C@H]1c1[nH]c(-c2ccc(-c3ccc(-c4cnc([C@@H]5CCCN5C(=O)[C@@H](NC(=O)OC)[C@@H](C)O)[nH]4)cc3)cc2)c2c1COC2)C(C)C
CC50 at 3 days: > 1 nM
